Assign normalized RNA/DNA level without ligand (log10) to each entry below.
B1: library; a variant is named by its letters at N, in order (parent)
chain: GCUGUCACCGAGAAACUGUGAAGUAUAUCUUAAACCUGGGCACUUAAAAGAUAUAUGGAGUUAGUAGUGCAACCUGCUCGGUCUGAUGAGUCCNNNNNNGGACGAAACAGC

- Variants of: B1
- Protocol text: normalized RNA/DNA level without ligand (relative to sTRSVctl = 100) (log10 (% of sTRSVctl)); HEK293T; ligand: cyclic di-GMP (c-di-GMP-II aptamer); higher = less ribozyme self-cleavage, higher mRNA level
- Cond: reporter: mCherry (pCS4076), ligand present: no
Answers are plain numbers.

Below: 4 variants and their reported normalized RNA/DNA level without ligand (log10).
Macromolecule sequence | Measured number
GCUGUCACCGAGAAACUGUGAAGUAUAUCUUAAACCUGGGCACUUAAAAGAUAUAUGGAGUUAGUAGUGCAACCUGCUCGGUCUGAUGAGUCCAUUUGUGGACGAAACAGC [AUUUGU] | 1.66
GCUGUCACCGAGAAACUGUGAAGUAUAUCUUAAACCUGGGCACUUAAAAGAUAUAUGGAGUUAGUAGUGCAACCUGCUCGGUCUGAUGAGUCCUUUGCGGGACGAAACAGC [UUUGCG] | 1.78
GCUGUCACCGAGAAACUGUGAAGUAUAUCUUAAACCUGGGCACUUAAAAGAUAUAUGGAGUUAGUAGUGCAACCUGCUCGGUCUGAUGAGUCCAAGACGGGACGAAACAGC [AAGACG] | 1.54
GCUGUCACCGAGAAACUGUGAAGUAUAUCUUAAACCUGGGCACUUAAAAGAUAUAUGGAGUUAGUAGUGCAACCUGCUCGGUCUGAUGAGUCCGCAUAGGGACGAAACAGC [GCAUAG] | 1.44

Field: normalized RNA/DNA level without ligand (log10). Fill in for each record below.
1. GCUGUCACCGAGAAACUGUGAAGUAUAUCUUAAACCUGGGCACUUAAAAGAUAUAUGGAGUUAGUAGUGCAACCUGCUCGGUCUGAUGAGUCCCCCAUCGGACGAAACAGC [CCCAUC]
2. GCUGUCACCGAGAAACUGUGAAGUAUAUCUUAAACCUGGGCACUUAAAAGAUAUAUGGAGUUAGUAGUGCAACCUGCUCGGUCUGAUGAGUCCACUAAUGGACGAAACAGC [ACUAAU]
3. GCUGUCACCGAGAAACUGUGAAGUAUAUCUUAAACCUGGGCACUUAAAAGAUAUAUGGAGUUAGUAGUGCAACCUGCUCGGUCUGAUGAGUCCCAAAUCGGACGAAACAGC [CAAAUC]

-- reply
1. 1.73
2. 1.47
3. 1.61

Field: normalized RNA/DNA level without ligand (log10). Fill in for each record below.
1. GCUGUCACCGAGAAACUGUGAAGUAUAUCUUAAACCUGGGCACUUAAAAGAUAUAUGGAGUUAGUAGUGCAACCUGCUCGGUCUGAUGAGUCCUCAGUUGGACGAAACAGC [UCAGUU]
2. GCUGUCACCGAGAAACUGUGAAGUAUAUCUUAAACCUGGGCACUUAAAAGAUAUAUGGAGUUAGUAGUGCAACCUGCUCGGUCUGAUGAGUCCAAUUUGGGACGAAACAGC [AAUUUG]
3. GCUGUCACCGAGAAACUGUGAAGUAUAUCUUAAACCUGGGCACUUAAAAGAUAUAUGGAGUUAGUAGUGCAACCUGCUCGGUCUGAUGAGUCCCUCGUGGGACGAAACAGC [CUCGUG]
4. GCUGUCACCGAGAAACUGUGAAGUAUAUCUUAAACCUGGGCACUUAAAAGAUAUAUGGAGUUAGUAGUGCAACCUGCUCGGUCUGAUGAGUCCAAGCGCGGACGAAACAGC [AAGCGC]
5. GCUGUCACCGAGAAACUGUGAAGUAUAUCUUAAACCUGGGCACUUAAAAGAUAUAUGGAGUUAGUAGUGCAACCUGCUCGGUCUGAUGAGUCCCACCGCGGACGAAACAGC [CACCGC]
6. GCUGUCACCGAGAAACUGUGAAGUAUAUCUUAAACCUGGGCACUUAAAAGAUAUAUGGAGUUAGUAGUGCAACCUGCUCGGUCUGAUGAGUCCCAGUUCGGACGAAACAGC [CAGUUC]

-- reply
[1.52, 1.62, 1.63, 1.67, 1.76, 1.66]

Field: normalized RNA/DNA level without ligand (log10). Fill in for each record below.
1. GCUGUCACCGAGAAACUGUGAAGUAUAUCUUAAACCUGGGCACUUAAAAGAUAUAUGGAGUUAGUAGUGCAACCUGCUCGGUCUGAUGAGUCCAUAUGUGGACGAAACAGC [AUAUGU]
2. GCUGUCACCGAGAAACUGUGAAGUAUAUCUUAAACCUGGGCACUUAAAAGAUAUAUGGAGUUAGUAGUGCAACCUGCUCGGUCUGAUGAGUCCGUUAAGGGACGAAACAGC [GUUAAG]
3. GCUGUCACCGAGAAACUGUGAAGUAUAUCUUAAACCUGGGCACUUAAAAGAUAUAUGGAGUUAGUAGUGCAACCUGCUCGGUCUGAUGAGUCCCGGUUCGGACGAAACAGC [CGGUUC]
4. GCUGUCACCGAGAAACUGUGAAGUAUAUCUUAAACCUGGGCACUUAAAAGAUAUAUGGAGUUAGUAGUGCAACCUGCUCGGUCUGAUGAGUCCAAAGCAGGACGAAACAGC [AAAGCA]
5. GCUGUCACCGAGAAACUGUGAAGUAUAUCUUAAACCUGGGCACUUAAAAGAUAUAUGGAGUUAGUAGUGCAACCUGCUCGGUCUGAUGAGUCCUUAGCAGGACGAAACAGC [UUAGCA]
6. GCUGUCACCGAGAAACUGUGAAGUAUAUCUUAAACCUGGGCACUUAAAAGAUAUAUGGAGUUAGUAGUGCAACCUGCUCGGUCUGAUGAGUCCCUCCCCGGACGAAACAGC [CUCCCC]
7. GCUGUCACCGAGAAACUGUGAAGUAUAUCUUAAACCUGGGCACUUAAAAGAUAUAUGGAGUUAGUAGUGCAACCUGCUCGGUCUGAUGAGUCCUACGGAGGACGAAACAGC [UACGGA]

-- reply
1.62
1.55
1.55
1.66
1.72
1.82
1.61

Field: normalized RNA/DNA level without ligand (log10). Fill in for each record below.
1. GCUGUCACCGAGAAACUGUGAAGUAUAUCUUAAACCUGGGCACUUAAAAGAUAUAUGGAGUUAGUAGUGCAACCUGCUCGGUCUGAUGAGUCCUACCAGGGACGAAACAGC [UACCAG]
2. GCUGUCACCGAGAAACUGUGAAGUAUAUCUUAAACCUGGGCACUUAAAAGAUAUAUGGAGUUAGUAGUGCAACCUGCUCGGUCUGAUGAGUCCGGCUUAGGACGAAACAGC [GGCUUA]
3. GCUGUCACCGAGAAACUGUGAAGUAUAUCUUAAACCUGGGCACUUAAAAGAUAUAUGGAGUUAGUAGUGCAACCUGCUCGGUCUGAUGAGUCCCCAUUAGGACGAAACAGC [CCAUUA]
4. GCUGUCACCGAGAAACUGUGAAGUAUAUCUUAAACCUGGGCACUUAAAAGAUAUAUGGAGUUAGUAGUGCAACCUGCUCGGUCUGAUGAGUCCAGAAUCGGACGAAACAGC [AGAAUC]
5. GCUGUCACCGAGAAACUGUGAAGUAUAUCUUAAACCUGGGCACUUAAAAGAUAUAUGGAGUUAGUAGUGCAACCUGCUCGGUCUGAUGAGUCCGAUUAGGGACGAAACAGC [GAUUAG]
6. GCUGUCACCGAGAAACUGUGAAGUAUAUCUUAAACCUGGGCACUUAAAAGAUAUAUGGAGUUAGUAGUGCAACCUGCUCGGUCUGAUGAGUCCCGAAUCGGACGAAACAGC [CGAAUC]

-- reply
1. 1.7
2. 1.61
3. 1.41
4. 1.63
5. 1.68
6. 1.6

Field: normalized RNA/DNA level without ligand (log10). Fill in for each record below.
1. GCUGUCACCGAGAAACUGUGAAGUAUAUCUUAAACCUGGGCACUUAAAAGAUAUAUGGAGUUAGUAGUGCAACCUGCUCGGUCUGAUGAGUCCGUUAUGGGACGAAACAGC [GUUAUG]
2. GCUGUCACCGAGAAACUGUGAAGUAUAUCUUAAACCUGGGCACUUAAAAGAUAUAUGGAGUUAGUAGUGCAACCUGCUCGGUCUGAUGAGUCCCAGGUUGGACGAAACAGC [CAGGUU]
3. GCUGUCACCGAGAAACUGUGAAGUAUAUCUUAAACCUGGGCACUUAAAAGAUAUAUGGAGUUAGUAGUGCAACCUGCUCGGUCUGAUGAGUCCGGUCAAGGACGAAACAGC [GGUCAA]
4. GCUGUCACCGAGAAACUGUGAAGUAUAUCUUAAACCUGGGCACUUAAAAGAUAUAUGGAGUUAGUAGUGCAACCUGCUCGGUCUGAUGAGUCCCCAGGAGGACGAAACAGC [CCAGGA]
5. GCUGUCACCGAGAAACUGUGAAGUAUAUCUUAAACCUGGGCACUUAAAAGAUAUAUGGAGUUAGUAGUGCAACCUGCUCGGUCUGAUGAGUCCCAAAAUGGACGAAACAGC [CAAAAU]
6. GCUGUCACCGAGAAACUGUGAAGUAUAUCUUAAACCUGGGCACUUAAAAGAUAUAUGGAGUUAGUAGUGCAACCUGCUCGGUCUGAUGAGUCCCGCGGAGGACGAAACAGC [CGCGGA]

-- reply
1: 1.57; 2: 1.8; 3: 1.4; 4: 1.5; 5: 1.45; 6: 1.45

Field: normalized RNA/DNA level without ligand (log10). Fill in for each record below.
1. GCUGUCACCGAGAAACUGUGAAGUAUAUCUUAAACCUGGGCACUUAAAAGAUAUAUGGAGUUAGUAGUGCAACCUGCUCGGUCUGAUGAGUCCAGUCCCGGACGAAACAGC [AGUCCC]
2. GCUGUCACCGAGAAACUGUGAAGUAUAUCUUAAACCUGGGCACUUAAAAGAUAUAUGGAGUUAGUAGUGCAACCUGCUCGGUCUGAUGAGUCCACCUGGGGACGAAACAGC [ACCUGG]
3. GCUGUCACCGAGAAACUGUGAAGUAUAUCUUAAACCUGGGCACUUAAAAGAUAUAUGGAGUUAGUAGUGCAACCUGCUCGGUCUGAUGAGUCCCCAGCAGGACGAAACAGC [CCAGCA]

-- reply
[1.77, 1.68, 1.73]

// data source = the supplement of paper PMC6757056
